# System: SK-MES-1
# test-summary: relative viability (nuclei count vs DMSO), 5 days (fraction); higher = more cells survive
# condition-context: first compound 0.1 µM
property-name: relative viability
Form field (numeric): enter value without unit.

For this molecule ( Cc1cn(-c2cc(NC(=O)c3ccc(C)c(Nc4nccc(-c5cccnc5)n4)c3)cc(C(F)(F)F)c2)cn1 [Nilotinib] + Nc1ncn([C@H]2C[C@H](O)[C@@H](CO)O2)c(=O)n1 [Decitabine] (partner 2 µM) ), measured relative viability is 0.46

# relative viability of Cc1cn(-c2cc(NC(=O)c3ccc(C)c(Nc4nccc(-c5cccnc5)n4)c3)cc(C(F)(F)F)c2)cn1 [Nilotinib] + Cc1nc(NC(=O)N2CCC[C@H]2C(N)=O)sc1-c1ccnc(C(C)(C)C(F)(F)F)c1 [Alpelisib] (partner 2 µM) = 1.01

// Cc1cn(-c2cc(NC(=O)c3ccc(C)c(Nc4nccc(-c5cccnc5)n4)c3)cc(C(F)(F)F)c2)cn1 [Nilotinib] + CC1(C)CCC(c2ccc(Cl)cc2)=C(CN2CCN(c3ccc(C(=O)NS(=O)(=O)c4ccc(N[C@H](CCN5CCOCC5)CSc5ccccc5)c(S(=O)(=O)C(F)(F)F)c4)cc3)CC2)C1 [Navitoclax] (partner 0.5 µM) : relative viability value = 1.29

Please fill in: relative viability reported for Cc1cn(-c2cc(NC(=O)c3ccc(C)c(Nc4nccc(-c5cccnc5)n4)c3)cc(C(F)(F)F)c2)cn1 [Nilotinib] + CCNC(=O)c1noc(-c2cc(C(C)C)c(O)cc2O)c1-c1ccc(CN2CCOCC2)cc1 [Luminespib] (partner 0.01 µM) = 0.626

###

# System: LU99A
# test-summary: relative viability (nuclei count vs DMSO), 5 days (fraction); higher = more cells survive
# condition-context: first compound 0.03162 µM
Reported relative viability values for the following compounds.
When you answer, write just the number.

Answered cases to consult:
Cc1cn(-c2cc(NC(=O)c3ccc(C)c(Nc4nccc(-c5cccnc5)n4)c3)cc(C(F)(F)F)c2)cn1 [Nilotinib] + Cc1cc(Nc2cc(N3CCN(C)CC3)nc(Sc3ccc(NC(=O)C4CC4)cc3)n2)n[nH]1 [Tozasertib] (partner 0.1 µM)	0.256
Cc1cn(-c2cc(NC(=O)c3ccc(C)c(Nc4nccc(-c5cccnc5)n4)c3)cc(C(F)(F)F)c2)cn1 [Nilotinib] + C[C@]1(O)C[C@@H](c2nc(-c3ccc4ccc(-c5ccccc5)nc4c3)c3c(N)nccn32)C1 [Linsitinib] (partner 1 µM)	0.568
Cc1cn(-c2cc(NC(=O)c3ccc(C)c(Nc4nccc(-c5cccnc5)n4)c3)cc(C(F)(F)F)c2)cn1 [Nilotinib] + NC(=O)Nc1cc(-c2cccc(F)c2)sc1C(=O)N[C@H]1CCCNC1 [AZD7762] (partner 0.2 µM)	0.33

We next turn to a different compound, shown below.
Briefly, relative viability measured for Cc1cn(-c2cc(NC(=O)c3ccc(C)c(Nc4nccc(-c5cccnc5)n4)c3)cc(C(F)(F)F)c2)cn1 [Nilotinib] + C[C@@H](Oc1cc(-c2cnn(C3CCNCC3)c2)cnc1N)c1c(Cl)ccc(F)c1Cl [Crizotinib] (partner 1 µM) : 0.429

###

A collection of compounds and their measured relative viability
# Tested on: NCI-H1395
# test-summary: relative viability (nuclei count vs DMSO), 5 days (fraction); higher = more cells survive
# condition-context: first compound 0.02 µM
Just the number, please, no unit attached.

CCNC(=O)c1noc(-c2cc(C(C)C)c(O)cc2O)c1-c1ccc(CN2CCOCC2)cc1 [Luminespib] + Cc1cc(Nc2cc(N3CCN(C)CC3)nc(Sc3ccc(NC(=O)C4CC4)cc3)n2)n[nH]1 [Tozasertib] (partner 0.1 µM)	0.676

Switching to the query record.
I looked up CN1CCN(CCOc2cc(OC3CCOCC3)c3c(Nc4c(Cl)ccc5c4OCO5)ncnc3c2)CC1 [Saracatinib] + NC(=O)Nc1cc(-c2cccc(F)c2)sc1C(=O)N[C@H]1CCCNC1 [AZD7762] (partner 0.2 µM) and its relative viability for NCI-H1395 was 0.404
